- target-or-test-system: Tyrosyl-tRNA synthetase, putative (Trypanosoma cruzi (strain CL Brener)) (UniProt Q4DSP6)
- Sequence (Q4DSP6 as listed by the source): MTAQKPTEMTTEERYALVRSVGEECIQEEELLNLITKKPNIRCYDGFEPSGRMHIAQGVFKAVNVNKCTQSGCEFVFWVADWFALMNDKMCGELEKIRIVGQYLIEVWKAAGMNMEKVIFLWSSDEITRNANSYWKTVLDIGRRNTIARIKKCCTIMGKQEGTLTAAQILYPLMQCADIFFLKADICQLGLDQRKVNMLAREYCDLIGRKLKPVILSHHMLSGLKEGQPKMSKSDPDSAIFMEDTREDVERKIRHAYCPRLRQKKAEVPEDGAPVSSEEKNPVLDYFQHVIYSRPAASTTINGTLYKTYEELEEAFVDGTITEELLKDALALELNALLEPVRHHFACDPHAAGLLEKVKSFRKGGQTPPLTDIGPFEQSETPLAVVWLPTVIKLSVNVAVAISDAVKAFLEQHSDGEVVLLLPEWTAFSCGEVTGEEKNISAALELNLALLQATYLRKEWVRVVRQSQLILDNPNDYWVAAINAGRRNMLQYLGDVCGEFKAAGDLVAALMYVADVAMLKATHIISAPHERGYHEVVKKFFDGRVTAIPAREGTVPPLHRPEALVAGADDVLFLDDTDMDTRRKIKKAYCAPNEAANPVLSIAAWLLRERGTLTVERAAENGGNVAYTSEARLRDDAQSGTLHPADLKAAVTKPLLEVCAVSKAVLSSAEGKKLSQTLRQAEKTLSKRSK
- run-description: Trypanosoma cruzi tyrosyl tRNA synthetase (TcYRS) SOP
- Format: functional
- Set-up: scale not given: direction of the effect not stated beside the values
- condition-info: 30 µM
value-kind: Percent Effect (%)

> print(dat)
                                    compound      value.kind  measurement
 1  Cc1cc(C)cc(N(C)S(=O)(=O)c2cc(C(=O)O)cs2)c1  Percent Effect          3.7
 2  CC1CN(C(=O)NCCCn2cncn2)CCO1 (configuration not stated)  Percent Effect         7.32
 3  O=C(Cc1ccccn1)N1CCC2(CC1)CC(Oc1ccccn1)CO2 (configuration not stated)  Percent Effect         16.7
 4   CNc1cc2c(nn1)CCN(C(=O)c1cc(F)cc(F)c1)C2  Percent Effect         9.41
 5  CC(C)CCN1Cc2c(C(=O)O)ncn2-c2ccccc2S1(=O)=O  Percent Effect         10.3
 6     CNC(=O)CCNC(=O)c1cccc(Cn2nc(C)cc2C)c1  Percent Effect         7.69
 7  COCc1nc(C(=O)N2CCCCC2Cn2cc(C)cn2)cs1 (configuration not stated)  Percent Effect        -4.71
 8  CC(C)CN1Cc2c(C(=O)N(C)C)ncn2-c2ccccc2S1(=O)=O  Percent Effect         15.4
 9  COc1cccc(-c2nc(C)c(C(=O)NC(CO)CCSC)s2)c1 (configuration not stated)  Percent Effect         7.69
10            CN(C)C(=O)CNC(=O)c1ccc(Cl)cc1F  Percent Effect        -28.6
11  CCOCCC(=O)N1CCCC(c2ncc[nH]2)C1 (configuration not stated)  Percent Effect          7.5
12  CCCc1n[nH]c(C2CN(Cc3nnc(C4CC4)o3)CCO2)n1 (configuration not stated)  Percent Effect         8.86
